- ASSAY_TARGET: T1, biotinylated His6 peptide (bio-EGGGSHHHHHH-COOH) (synthetic peptide, SMILES …)
- T1 construct: spacer EGGGS and His6; Held on streptavidin biosensors by its biotin; source: synthetic peptide (PSSM-8 peptide synthesizer)
- T1 chain: Biotin-EGGGSHHHHHH-OH
- ASSAY_OVERVIEW: BLI; biotinylated His6 peptide (100 nM) loaded on streptavidin biosensors; unlabeled protein or Q-body in two-fold dilutions in Kinetic buffer (phosphate, 150 mM NaCl, 0.002% Tween20, 0.1% BSA, pH 7.4); global fit, 1:1 model; Octet K2
- EXPERIMENTAL_CONDITIONS: both partners purified
The star is where a group is joined. Biotin = O=C1N[C@H]2[C@H](CS[C@H]2CCCCC(=O)*)N1
Please go through the items and note down their pKd.
Quick note: pKd means taking -log10 of the concentration in moles per liter.

Q) May I ask what pKd has been recorded for 5-TAMRA C6 maleimide-labeled wild-type scFv 3D5 Q-body (scFv, V domains shown, VH of antibody 3D5, as in m1; linker between VH and VL, as in m1; VL of antibody 3D5, as in m1; m1 labelled with one dye; also called wild-type scFv Q-body; source: E. coli SHuffle T7 Express with pGro7, purified (Talon IMAC), labelled, purified (anti-FLAG M2 beads, G-25); not shown: Cys-tag, N-terminal, kept; His6, C-terminal, kept; FLAG, C-terminal, kept) VH: QVQLQQSGPEDVKPGASVKISCKASGYTFTDYYMNWVKQSPGKGLEWIGDINPNNGGTSYNQKFKGRATLTVDKSSSTAYMELRSLTSEDSSVYYCESQSGAYWGQGTTVTVSA VL: DILMTQTPSSLPVSLGDQASISCRSSQSIVHSNGNTYLEWYLQKPGQSPKLLIYKVSNRFSGVPDRFSGSGSGTDFTLKISRVEAEDLGVYYCFQGSHVPFTFGSGTKLEIK ?
A) 7.57

Q) May I ask what pKd has been recorded for anti-His scFv 3D5 (wild-type) (scFv, V domains shown, VH of antibody 3D5 (anti-C-terminal His tag); numbers count on: Kabat numbering of the heavy chain; linker between VH and VL of the VH-VL type scFv (synthesised gene in pEX-K4J2-1KTR); VL of antibody 3D5; VH-VL order, vector pSQ (3D5); also called wild-type scFv; source: E. coli SHuffle T7 Express with pGro7, purified (Talon IMAC); not shown: Cys-tag, N-terminal, kept; His6, C-terminal, kept; …) VH: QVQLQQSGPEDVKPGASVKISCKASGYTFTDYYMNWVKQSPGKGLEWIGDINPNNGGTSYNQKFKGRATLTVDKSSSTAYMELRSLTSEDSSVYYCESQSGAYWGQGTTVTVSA VL: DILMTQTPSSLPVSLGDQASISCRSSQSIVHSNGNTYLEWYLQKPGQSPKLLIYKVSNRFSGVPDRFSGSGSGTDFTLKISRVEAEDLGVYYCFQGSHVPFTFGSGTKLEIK ?
A) 8.30

Q) May I ask what pKd has been recorded for anti-His Fab 3D5 (wild-type) (Fab, V domains shown, VH of antibody 3D5; numbers count on: Kabat numbering of the heavy chain; CH1 of the vector pUQ2 (Fd = VH-CH1); VL of antibody 3D5; CL of the vector pUQ2 (Lc = VL-CL); Linker-less pUQ2 (3D5): the (GGGS)4 linker between Cys-tag and VH was removed; His6 is followed by myc on the heavy chain; also called wild-type Fab; source: E. coli SHuffle T7 Express with pGro7, purified (Talon IMAC); not shown: …) VH: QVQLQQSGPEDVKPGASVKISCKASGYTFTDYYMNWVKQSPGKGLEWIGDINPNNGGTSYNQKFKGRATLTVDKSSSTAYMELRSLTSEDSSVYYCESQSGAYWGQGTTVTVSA VL: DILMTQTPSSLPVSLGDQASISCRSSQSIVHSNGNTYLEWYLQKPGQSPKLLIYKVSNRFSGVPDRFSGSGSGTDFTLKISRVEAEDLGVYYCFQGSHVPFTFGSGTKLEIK ?
A) 8.44

Q) May I ask what pKd has been recorded for anti-His Fab 3D5 YW variant (Fab, V domains shown, VH of antibody 3D5, as the VH of m7 with the stated change; numbers count on: Kabat numbering of the heavy chain; CH1 of the vector pUQ2, as in m7; VL of antibody 3D5, as the light chain of m7; CL of the vector pUQ2, as the light chain of m7; YW read as Tyr kept at 32H and Trp at 33H; source: E. coli SHuffle T7 Express with pGro7, purified (Talon IMAC); not shown: Cys-tag, N-terminal, kept; His6, …) VH: QVQLQQSGPEDVKPGASVKISCKASGYTFTDYWMNWVKQSPGKGLEWIGDINPNNGGTSYNQKFKGRATLTVDKSSSTAYMELRSLTSEDSSVYYCESQSGAYWGQGTTVTVSA VL: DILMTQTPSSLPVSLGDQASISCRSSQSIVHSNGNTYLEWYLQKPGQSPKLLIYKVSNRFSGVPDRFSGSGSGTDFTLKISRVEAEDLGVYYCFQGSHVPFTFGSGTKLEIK ?
A) 9.12

Q) May I ask what pKd has been recorded for 5-TAMRA C6 maleimide double-labeled wild-type Fab 3D5 Q-body (Fab, V domains shown, VH of antibody 3D5, as in m7; CH1 of the vector pUQ2, as in m7; VL of antibody 3D5, as the light chain of m7; CL of the vector pUQ2, as the light chain of m7; m7 labelled with two dyes; also called Wild-type TAMRA; source: E. coli SHuffle T7 Express with pGro7, purified (Talon IMAC), labelled, purified (anti-FLAG M2 beads, G-25); not shown: Cys-tag, N-terminal, kept; His6, C-terminal, kept; myc, …) VH: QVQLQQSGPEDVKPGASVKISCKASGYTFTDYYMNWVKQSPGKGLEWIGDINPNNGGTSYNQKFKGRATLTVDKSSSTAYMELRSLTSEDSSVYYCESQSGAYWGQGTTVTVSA VL: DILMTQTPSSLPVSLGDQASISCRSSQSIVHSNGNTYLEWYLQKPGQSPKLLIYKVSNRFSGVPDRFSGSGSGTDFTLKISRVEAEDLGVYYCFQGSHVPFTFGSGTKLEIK ?
A) 8.50

Q) May I ask what pKd has been recorded for 5-TAMRA C6 maleimide double-labeled YW Fab 3D5 Q-body (Fab, V domains shown, VH of antibody 3D5, as the VH of m7 with the stated change; numbers count on: Kabat numbering of the heavy chain; CH1 of the vector pUQ2, as in m7; VL of antibody 3D5, as the light chain of m7; CL of the vector pUQ2, as the light chain of m7; m9 labelled with two dyes; also called YW TAMRA; source: E. coli SHuffle T7 Express with pGro7, purified (Talon IMAC), labelled, purified (anti-FLAG M2 …)) VH: QVQLQQSGPEDVKPGASVKISCKASGYTFTDYWMNWVKQSPGKGLEWIGDINPNNGGTSYNQKFKGRATLTVDKSSSTAYMELRSLTSEDSSVYYCESQSGAYWGQGTTVTVSA VL: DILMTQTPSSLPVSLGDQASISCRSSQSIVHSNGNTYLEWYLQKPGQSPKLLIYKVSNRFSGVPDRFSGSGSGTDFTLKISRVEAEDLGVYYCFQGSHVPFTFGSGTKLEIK ?
A) 8.88
